B1: TPR t1 (parent)
chain: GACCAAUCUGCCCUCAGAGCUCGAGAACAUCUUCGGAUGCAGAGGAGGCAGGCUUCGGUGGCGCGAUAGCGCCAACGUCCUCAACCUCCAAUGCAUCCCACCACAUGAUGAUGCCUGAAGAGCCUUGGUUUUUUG

# Variants of: B1
# EXPERIMENTAL DETAILS: polymerase ribozyme fitness, log enrichment relative to wild type (log ratio); higher = more active; in vitro selection for triplet polymerase activity
Entries and their measured polymerase ribozyme fitness (log ratio) follow.
Number only, no unit.

Study these solved cases before continuing.
A27U A43U G48A C88A C123A | -4.03
G61C G128U | -3.46
G117U U133A | -3.13
U33G U55A C72G | -6.25
G45C C114A | -2.66

### Prompt Look up polymerase ribozyme fitness (log ratio): G45A C123G
### Response 0.984

### Prompt Query U14A C79U G117U next
### Response -5.29

### Prompt Query A5U G69U A91C G113A U116C U130C next
### Response -5.42

### Prompt Query G63A C104A U132A G135U next
### Response -3.28

### Prompt Query C40G C88U G122A next
### Response -2.03

### Prompt Query G44A G120U next
### Response -1.14
